Sourced from the supplement of paper PMC6555819

# Tested on: RARg:RXRa (NR concentration 270 nM, RXRa partner concentration 90 nM)
# protocol_summary: PBM binding z-score (relative to random genomic background probes); higher = stronger binding; sequences stand for … in GC…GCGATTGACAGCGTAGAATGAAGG
Below, each entry is listed alongside its reported PBM binding z-score.
Lab note: write the figure by itself, no unit.

Recorded results for 3 sequences are shown here.
CCTAGTTGGTCAGGAGGTCACACATCGGATATGA = 4.62
ATATGTAGGTTACATCCGGGTCATTCAGGCTATG = 3.77
TCGAGTAGGCTAGGGGCATTCAGAATGGCGTCGA = -0.329

Recorded PBM binding z-score of ATGTCTAGGTAAAGTTCAGTGAAAGATCGATAGA , please.
2.12

Recorded PBM binding z-score of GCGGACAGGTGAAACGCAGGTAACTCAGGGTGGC , please.
1.13

Recorded PBM binding z-score of TCGAGTTGGTTAGTCGGGGCATTCAGCCAACATA , please.
-0.34
